Tested on: Mycobacterium tuberculosis
Assay Procedure: Cornell - Phenotypic assay to identify agents that inhibit growth of Mycobacterium tuberculosis
Assay type: functional
Set-up: scale not given: direction of the effect not stated beside the values
Setup Conditions: 10 mM as filed; unlikely as a test dose
Out of some 53,000 compounds screened, about 900 (1.7%) showed an effect of 50% or more. Only a selection was taken, and strong results are over-represented in it overall.
Quantity Name: Percent Effect (%)
Write the number in % without appending the unit.

Sample records with Percent Effect:
Molecule: O=C(c1cnco1)N1CCC(Cc2cccc3ncccc23)CC1
Target Of Assay: Mycobacterium tuberculosis
Percent Effect, %: -21.16
//
Molecule: COCCn1ccc2cc(C(=O)NC3CCOC(C)(C)C3)ccc21 (stereo not drawn)
Target Of Assay: Mycobacterium tuberculosis
Percent Effect, %: 51.29
//
Molecule: CCN1CC(C(=O)N(C)Cc2cc3cc(F)ccc3[nH]2)CC1=O (stereo not drawn)
Target Of Assay: Mycobacterium tuberculosis
Percent Effect, %: 42.66
//
Molecule: CN(C)S(=O)(=O)N1CCN(c2ccnc(N3CCCC3)n2)CC1
Target Of Assay: Mycobacterium tuberculosis
Percent Effect, %: 12.56
//
Molecule: O=C(N1CCCC(n2cncn2)C1)C1(c2cccc(F)c2)CCCC1 (stereo not drawn)
Target Of Assay: Mycobacterium tuberculosis
Percent Effect, %: -7.361
//
Molecule: OC1(CN2CCC(Cc3ncccn3)CC2)CCOCC1
Target Of Assay: Mycobacterium tuberculosis
Percent Effect, %: -20.94
//
Molecule: O=C(c1cnco1)N1CCC(Cc2cnc3ccccc3c2)CC1
Target Of Assay: Mycobacterium tuberculosis
Percent Effect, %: 64.83
//
Molecule: CCCc1cncnc1N1CCC2(CCC(=O)N(CCOC)C2)CC1
Target Of Assay: Mycobacterium tuberculosis
Percent Effect, %: -26.49

Form field Percent Effect for item COCC(=O)N1CCN(C)CC(Cc2cc(N(C)C)ncn2)C1 (stereo not drawn) on Mycobacterium tuberculosis: 14.46

Form field Percent Effect for item O=C(NCCCOCC1CCCO1)c1cccnc1N1CCOCC1 (stereo not drawn) on Mycobacterium tuberculosis: -37.06

Form field Percent Effect for item CN(Cc1cc2cc(F)ccc2[nH]1)C(=O)C1CC(=O)N(C(C)(C)C)C1 (stereo not drawn) on Mycobacterium tuberculosis: 23.39

Form field Percent Effect for item CN(Cc1cc2cc(F)ccc2[nH]1)C(=O)C1CC(=O)N(C2CC2)C1 (stereo not drawn) on Mycobacterium tuberculosis: 52.25

Form field Percent Effect for item CCc1nnc(CN(C)C(=O)C2CC(=O)N(C3CC3)C2)o1 (stereo not drawn) on Mycobacterium tuberculosis: 20.13

Form field Percent Effect for item CCn1cc(-c2cc(C(F)(F)F)nc(NC3CCCC3)n2)c(C)n1 on Mycobacterium tuberculosis: 101.8

Form field Percent Effect for item CN(C)CCN1CC(C(=O)N(C)Cc2cc3cc(F)ccc3[nH]2)CC1=O (stereo not drawn) on Mycobacterium tuberculosis: 29.76

Form field Percent Effect for item CS(=O)(=O)N1CCN(c2ccnc(N3CCCCC3)n2)CC1 on Mycobacterium tuberculosis: 63

Form field Percent Effect for item CCCS(=O)(=O)N1CCN(c2ccnc(N3CCCCC3)n2)CC1 on Mycobacterium tuberculosis: 50.94

Form field Percent Effect for item CN(Cc1cc2cc(F)ccc2[nH]1)C(=O)C1CC(=O)N(C2CCCC2)C1 (stereo not drawn) on Mycobacterium tuberculosis: 65.9

Form field Percent Effect for item CC(C)c1ccc(S(=O)(=O)N2CSCC2C(=O)NCC(F)(F)F)cc1 (stereo not drawn) on Mycobacterium tuberculosis: 11.48

Form field Percent Effect for item Cn1ccc2ccc(C(=O)NC3CCOC(C)(C)C3)cc21 (stereo not drawn) on Mycobacterium tuberculosis: 33.83

Form field Percent Effect for item O=C(NCCCOCC1CCCO1)c1cccnc1N1CCCC1 (stereo not drawn) on Mycobacterium tuberculosis: 105.2

Form field Percent Effect for item Cn1ccc2cc(C(=O)NC3CCOC(C)(C)C3)ccc21 (stereo not drawn) on Mycobacterium tuberculosis: 38.28

Form field Percent Effect for item COCCS(=O)(=O)c1ncc(CN(C)CC(C)C)n1Cc1ccccc1 on Mycobacterium tuberculosis: -3.776
